# assay_notes: Anti-proliferative activity against human L02 cells after 48 hrs by MTT assay
# Assay type: ADME, cell-based
# Set-up: concentration or dose not given beside the values
# measurement_context: human, L02 cells
Note to self: values exactly at 9% are y. So inhibition at 48 h at or above 9% is y, below is n.

Form field: inhibition at 48 h at least 9%? Entry: Cc1cn(-c2ccc(C(F)(F)F)cc2)nn1
y

Field entry: Cc1nncn1-c1ccc(F)cc1
y

Field entry: O=c1ccc2cc3ccoc3c(OCc3cn(-c4ccc(C(F)(F)F)cc4)nn3)c2o1
y

Field entry: COc1c2occc2cc2ccc(=O)oc12
n

Field entry: O=c1ccc2cc3ccoc3c(OCc3nncn3-c3ccc(F)cc3)c2o1
y

====

Kindly state pIC50 for each of the entries shown.
# System: L02
# assay_notes: Anti-proliferative activity against human L02 cells after 48 hrs by MTT assay
# Format: ADME, cell-based
# measurement_context: Homo sapiens, L02, 48 h
pIC50: −log10 of the molar value.

Need pIC50 of O=c1ccc2cc3ccoc3c(OCc3cn(Cc4ccc(Cl)cc4)nn3)c2o1 , thanks.
< 4.00

Field entry: Cc1ccc(-n2cc(COc3c4occc4cc4ccc(=O)oc34)nn2)cc1
< 4.00

Field entry: O=c1ccc2cc3ccoc3c(OCc3cn(Cc4ccc(Cl)cc4Cl)nn3)c2o1
4.04

Field entry: O=c1ccc2cc3ccoc3c(OCc3cn(Cc4cccc(C(F)(F)F)c4)nn3)c2o1
< 4.00

Field entry: O=c1ccc2cc3ccoc3c(OCc3cn(-c4ccc(C(F)(F)F)cc4)nn3)c2o1
< 4.00

Field entry: O=c1ccc2cc3ccoc3c(OCc3cn(-c4ccc(Cl)cc4)nn3)c2o1
< 4.00

Field entry: Cc1cn(-c2ccc(C(F)(F)F)cc2)nn1
< 4.00

Field entry: O=c1ccc2cc3ccoc3c(OCc3nncn3-c3ccc(F)cc3)c2o1
4.03

Field entry: Cc1nncn1-c1ccc(F)cc1
< 4.00

Field entry: O=c1ccc2cc3ccoc3c(OCc3cn(-c4ccc(F)cc4)nn3)c2o1
< 4.00

Field entry: COc1c2occc2cc2ccc(=O)oc12
< 4.00

Field entry: O=c1ccc2cc3ccoc3c(OCc3nncn3-c3ccc(C(F)(F)F)cc3)c2o1
< 4.00

Field entry: COc1ccc(-n2cc(COc3c4occc4cc4ccc(=O)oc34)nn2)cc1
< 4.00

====

# Test system: AGS
# assay_notes: Anti-proliferative activity against human AGS cells after 48 hrs by MTT assay
# Assay type: functional, cell-based
Binarize IC50 at 30 µM; below is yes (1), at or above is no (0).

Answer whether the compound COc1c2occc2cc2ccc(=O)oc12 [METHOXSALEN] has IC50 strictly less than 30 µM
no (0)

Field entry: O=c1ccc2cc3ccoc3c(OCc3nncn3-c3ccc(C(F)(F)F)cc3)c2o1
no (0)

Field entry: O=c1ccc2cc3ccoc3c(OCc3cn(-c4ccc(F)cc4)nn3)c2o1
yes (1)

Field entry: O=c1ccc2cc3ccoc3c(OCc3cn(Cc4cccc(C(F)(F)F)c4)nn3)c2o1
no (0)

Field entry: O=c1ccc2cc3ccoc3c(OCc3nncn3-c3ccc(F)cc3)c2o1
yes (1)

Field entry: O=c1ccc2cc3ccoc3c(OCc3cn(Cc4ccc(Cl)cc4)nn3)c2o1
no (0)

Field entry: O=c1ccc2cc3ccoc3c(OCc3cn(-c4ccc(C(F)(F)F)cc4)nn3)c2o1
yes (1)

Field entry: Cc1nncn1-c1ccc(F)cc1
no (0)

Field entry: COc1ccc(-n2cc(COc3c4occc4cc4ccc(=O)oc34)nn2)cc1
no (0)

Field entry: Cc1ccc(-n2cc(COc3c4occc4cc4ccc(=O)oc34)nn2)cc1
no (0)

Field entry: Cc1cn(-c2ccc(C(F)(F)F)cc2)nn1
no (0)

Field entry: O=c1ccc2cc3ccoc3c(OCc3cn(-c4ccc(Cl)cc4)nn3)c2o1
yes (1)

Field entry: O=c1ccc2cc3ccoc3c(OCc3cn(Cc4ccc(Cl)cc4Cl)nn3)c2o1
yes (1)

====

Kindly state Ratio IC50 for each of the entries shown.
# assay_notes: Selectivity index, ratio of IC50 for human L02 cells to IC50 for human AGS cells
# Format: functional

Need Ratio IC50 of O=c1ccc2cc3ccoc3c(OCc3cn(-c4ccc(Cl)cc4)nn3)c2o1 , thanks.
>12.2

Field entry: O=c1ccc2cc3ccoc3c(OCc3cn(-c4ccc(C(F)(F)F)cc4)nn3)c2o1
>13.3

Field entry: O=c1ccc2cc3ccoc3c(OCc3cn(-c4ccc(F)cc4)nn3)c2o1
>9.3

Field entry: O=c1ccc2cc3ccoc3c(OCc3cn(Cc4ccc(Cl)cc4Cl)nn3)c2o1
3.4

Field entry: COc1ccc(-n2cc(COc3c4occc4cc4ccc(=O)oc34)nn2)cc1
>1.1

Field entry: O=c1ccc2cc3ccoc3c(OCc3nncn3-c3ccc(F)cc3)c2o1
7.2

Field entry: O=c1ccc2cc3ccoc3c(OCc3nncn3-c3ccc(C(F)(F)F)cc3)c2o1
>2.4

Field entry: Cc1ccc(-n2cc(COc3c4occc4cc4ccc(=O)oc34)nn2)cc1
>3

Field entry: O=c1ccc2cc3ccoc3c(OCc3cn(Cc4ccc(Cl)cc4)nn3)c2o1
>1.1

Just for reference, ChEMBL document CHEMBL4043250 is where these values come from.
